system: Klebsiella pneumoniae; test: Antimicrobial activity against Klebsiella pneumoniae 126/2007 by microdilution method; format: functional
Readings of MIC for the listed compounds

The examples below pair each entry with its known result.
                                compound     experimentalsystem   resultvalue
0    CC(C)c1ccccc1NC(=S)NC(=O)c1cnn(C)c1  Klebsiella pneumoniae    1000 µg/mL
1       CCc1ccccc1NC(=S)NC(=O)c1cnn(C)c1  Klebsiella pneumoniae    1000 µg/mL
2  CC(C)c1ccc(NC(=S)NC(=O)c2cnn(C)c2)cc1  Klebsiella pneumoniae  > 1000 µg/mL
3      Cc1ccc(NC(=S)NC(=O)c2cnn(C)c2)cc1  Klebsiella pneumoniae  > 1000 µg/mL
4     CCc1ccc(NC(=S)NC(=O)c2cnn(C)c2)cc1  Klebsiella pneumoniae  > 1000 µg/mL

// query Recorded MIC for Cn1cc(C(=O)NC(=S)Nc2ccc(C(C)(C)C)cc2)cn1 , please?
// result > 1000 µg/mL

// query What about Cc1ccccc1NC(=S)NC(=O)c1cnn(C)c1 ?
// result > 1000 µg/mL

// query Same question, CCCc1ccccc1NC(=S)NC(=O)c1cnn(C)c1 this time
// result 500 µg/mL

// query Try this compound too: CCC(C)c1ccc(NC(=S)NC(=O)c2cnn(C)c2)cc1 (stereo not drawn)
// result > 1000 µg/mL

// query Would you kindly repeat that for Cc1cccc(NC(=S)NC(=O)c2cnn(C)c2)c1 ?
// result 1000 µg/mL

// query Continue with CCC(C)c1ccccc1NC(=S)NC(=O)c1cnn(C)c1 (stereo not drawn)
// result > 1000 µg/mL

// query Follow-up item: Cn1cc(C(=O)NC(=S)Nc2ccccc2C(C)(C)C)cn1
// result > 1000 µg/mL

// query Another compound to look at: CCCc1ccc(NC(=S)NC(=O)c2cnn(C)c2)cc1
// result > 1000 µg/mL
